# measured-on: OR5A2_variant 1 (Homo sapiens, UniProt Q8NGI9)
# Construct: expressed in transfected cells; host or cells: HEK293T-RTP1A1/RTP2
# assay-info: Luciferase reporter concentration-response analysis on OR5A2_variant 1
# Type: cell-based
# run-conditions: concentration-response analysis, luciferase reporter; values given as negative (log) numbers; read-out: calculated EC50, OR5A2 (converted)
# EC50 values compiled below
Respond numerically; units are µM and should not be typed.

Reported EC50 for O=C1CCCCCCCCOCCCCCCO1 [Oxalide T] : what is it?
8.32

Reported EC50 for O=C1CCC/C=C\CCCCCCCCCC1 : what is it?
28.8

Reported EC50 for CC(=O)c1cc2c(cc1C)C(C)(C)C(C)CC2(C)C (stereo not shown) [Tonalide ®] : what is it?
0.759

Reported EC50 for c1ncc2c(n1)CCCCCCCCCC2 : what is it?
5.13

Reported EC50 for O=C1CCCCCCCCCCC(=O)OCCO1 : what is it?
38

Others:
Reported EC50 for O=C1CCCCCCCCCCCC(=O)OCCO1 [Ethylene Brassylate] : what is it?
49

Reported EC50 for Cc1c([N+](=O)[O-])cc2c(c1[N+](=O)[O-])C(C)(C)CC2(C)C : what is it?
1.86

Reference source: patent US12461089B2
